Values were extracted from paper PMC6600542.

# target or system: human α-thrombin (Homo sapiens)
measurement type: IC50

Ask: Look up IC50 for this compound: N=C(N)c1ccc(OCCCCCOc2ccc(C(=N)N)cc2)cc1 [pentamidine isethionate]
Reply: > 100 µM

---

# target or system: bovine trypsin (Bos taurus, UniProt P00760)
# Sequence (P00760 24-246): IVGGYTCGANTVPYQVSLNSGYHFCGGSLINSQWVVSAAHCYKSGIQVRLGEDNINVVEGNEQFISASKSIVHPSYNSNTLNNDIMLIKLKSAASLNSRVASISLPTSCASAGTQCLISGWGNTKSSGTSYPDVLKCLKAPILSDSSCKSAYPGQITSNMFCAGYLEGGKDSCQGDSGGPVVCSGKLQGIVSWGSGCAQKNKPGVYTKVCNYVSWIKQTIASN
measurement type: pIC50
In textbook form, pIC50 equals minus log to base ten of the concentration in mol/L.

Ask: Requested read-out pIC50, target or system bovine trypsin (Bos taurus, UniProt P00760), entry N=C(N)c1ccc(OCCCCCOc2ccc(C(=N)N)cc2)cc1 [pentamidine isethionate]
Reply: 5.31

---

# target or system: human neutrophil elastase (Homo sapiens, UniProt P08246)
# Sequence (P08246 30-247 limits assumed): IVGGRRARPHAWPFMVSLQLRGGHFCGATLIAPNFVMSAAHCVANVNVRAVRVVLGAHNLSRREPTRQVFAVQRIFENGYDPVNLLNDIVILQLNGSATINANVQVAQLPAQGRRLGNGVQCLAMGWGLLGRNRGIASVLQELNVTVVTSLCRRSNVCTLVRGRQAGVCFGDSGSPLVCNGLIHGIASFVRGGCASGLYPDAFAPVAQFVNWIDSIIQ
# procedure text: Neutrophil elastase chromogenic substrate hydrolysis assay
# measurement setup: pH 7.4
pIC50: −log10 of the molar value.
measurement type: pIC50

Ask: Write down the reported pIC50 of N=C(N)c1ccc(OCCCCCOc2ccc(C(=N)N)cc2)cc1 [pentamidine isethionate] , test system: human neutrophil elastase (Homo sapiens, UniProt P08246).
Reply: < 4.00
